Each entry below lists one item and its recorded TGI value.
Test system: KM12 colon
Assay: NCI tumour cell line growth inhibition, 48 h
MEASUREMENT LABEL: TGI

NCCCN1c2ccccc2Sc2ccc(Cl)cc21; > 6.37 µM
O=C(Nc1cccc(C(F)(F)F)c1)c1ccc(NC2=C(Cl)C(=O)N(Cc3ccc(Cl)cc3Cl)C2=O)cc1; 31.4 µM
Cc1ccc2nc(/C(=C/c3ccc(/C=C(\NC(=O)c4ccccc4)c4nc5ccc(C)cc5[nH]4)c(C)c3)NC(=O)c3ccccc3)[nH]c2c1; 37.5 µM
CCCCCCCCCCCCCCCCNc1cccc2ccccc12; > 100 µM
CCN1CCN(c2cc(C)c3cc(NC(=O)c4ccc(OC)c(OC)c4)ccc3n2)CC1; > 86.3 µM
O=C(O)CN1CCN2CCCCCN(CC1)CCN(CC(=O)O)CC2; > 100 µM
Cc1nc(Nc2cccnc2)sc1C(=O)/C=C/c1ccc(F)cc1; 4.61 µM
CC(c1ccccc1)N1CCN(C(C)c2ccccc2)CC1 (stereo not given); > 100 µM
O=C(O)C(Cl)(Cl)Cl; > 100 µM
O=C1C=C/C(=N\N=C(c2ccccc2)c2ccccc2)O1; > 10 µM
NNC(=O)CNc1cccc(Br)c1; > 100 µM
Oc1cc(Cl)cc2cccnc12; > 100 µM
Cc1c2cc[n+](C)c(C)c2cc2c1[nH]c1ccccc12; 21.1 µM
COc1cc2c(cc1OC)C(C(c1ccccc1)c1ccccc1)N(C)CC2 (stereo not given); > 100 µM
CCOC(=O)c1c(-c2ccc(O)c(OC)c2)c(C#N)c(=S)n(C2OC(CO)C(O)C(O)C2O)c1-c1ccccc1 (stereo not given); > 100 µM

----------
Listing: GI50 of selected molecules
System: HOP-62 NSCLC
Assay: NCI tumour cell line growth inhibition, 48 h
MEASUREMENT LABEL: GI50

O=C(c1ccco1)c1c(C(F)(F)F)nc2ccc(Cl)cc2[n+]1[O-]; > 100 µM
COc1cc(C(=O)N2CCN(C(=O)c3cc(OC)c(OC)c(OC)c3)C2=S)cc(OC)c1OC; 15.2 µM
Cc1nc(Nc2cccnc2)sc1C(=O)/C=C/c1ccc(F)cc1; 2.61 µM

----------
We begin with a simple list: items and their reported TGI.
Test system: HT29 colon
Test: NCI tumour cell line growth inhibition, 48 h
MEASUREMENT LABEL: TGI

CCOC(=O)c1cccc(N=Nc2nc[nH]c2/C=C/C(=O)OC)c1; > 100 µM
COc1cc(C(=O)N2CCN(C(=O)c3cc(OC)c(OC)c(OC)c3)C2=S)cc(OC)c1OC; 53.2 µM
CN1CCN(c2ccc(Nc3cc(-c4cccc(-n5ccc6cc(C7CC7)cc(F)c6c5=O)c4CO)cn(C)c3=O)nc2)CC1; 13.9 µM
CCOC(=O)C1S/C(=N\C(=N)N[N+](=O)[O-])N=C1C (centres undefined); > 100 µM
CC(=O)NC1C(OCc2ccccc2)OC(CO)C(O)C1OCC(=O)N[C@@H](C)C(=O)N[C@H](CCC(=O)NCCCNc1c2ccccc2nc2cccc([N+](=O)[O-])c12)C(N)=O (some centres undefined); 0.199 µM
Cc1cc2c(=O)c3ccccc3[nH]c2c(C(N)=O)c1C; > 100 µM
BrC(=C(c1ccc(OC2CCCCO2)cc1)c1ccc(OC2CCCCO2)cc1)c1ccccc1 (centres undefined); > 100 µM
COc1ccc2/c(=C/c3ccc(N(C)C)cc3)c3cc(-c4ccccc4)[n+](C)n3c2c1; 0.624 µM
CCNC(=S)NNC(=O)C12CC3CC(CC(C3)C1)C2; > 100 µM
C/C(N=NC(=S)N1CC2CCC(CC2)C1)=C1\C=CC=CN1O; > 57.9 µM
O=P(O)(O)C(N=C(Nc1ccccc1)Nc1ccccc1)P(=O)(O)O; > 100 µM
C[N+](C)([O-])CCOc1cc2c(c3ccccc13)-c1ccccc1C2=O; > 35.6 µM
Cc1nc(C)c(C(=O)NNC(=O)C[N+](C)(C)C)cc1C(=O)NNC(=O)C[N+](C)(C)C; > 100 µM
CCOc1ccc(/C=C2\N=C(c3ccc([N+](=O)[O-])cc3)OC2=O)cc1; > 100 µM
